Biological target: T1, human EphB4 (Homo sapiens, UniProt P54760)
T1 construct: a protein of the extracellular region of each human Eph receptor fused with the SEAP protein and the His tag; made in house; host or cells: Expi293F cells
T1 sequence (P54760 16-539 limits assumed): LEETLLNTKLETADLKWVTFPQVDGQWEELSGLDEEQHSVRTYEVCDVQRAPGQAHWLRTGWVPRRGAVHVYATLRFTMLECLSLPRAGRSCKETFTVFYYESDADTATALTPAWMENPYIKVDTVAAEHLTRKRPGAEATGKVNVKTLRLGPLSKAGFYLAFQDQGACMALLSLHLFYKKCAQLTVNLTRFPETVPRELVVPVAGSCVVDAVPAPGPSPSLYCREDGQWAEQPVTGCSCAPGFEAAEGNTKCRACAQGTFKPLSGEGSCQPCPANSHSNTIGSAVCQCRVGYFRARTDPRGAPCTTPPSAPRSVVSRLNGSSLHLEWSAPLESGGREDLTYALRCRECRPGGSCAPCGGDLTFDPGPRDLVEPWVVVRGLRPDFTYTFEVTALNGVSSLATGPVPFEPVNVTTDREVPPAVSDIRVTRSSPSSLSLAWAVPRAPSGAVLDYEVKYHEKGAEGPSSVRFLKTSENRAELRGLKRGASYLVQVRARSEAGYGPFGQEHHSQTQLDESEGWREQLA
Assay: Selectivity ELISA of humanized antibodies for human Eph receptor
Assay type: binding
Conditions: coated protein 1 nM
measured_property: hEphB4-SEAP-: absorbance at 450 nm, percentage with respect to hEphA4-SEAP-His as 100% (%)
Your answer is read as %, so omit the unit and give the number.

molecule	display_unit	reported_value
151 (antibody, V domains shown, synthetic humanized antibody heavy chain variable region sequence; synthetic humanized antibody light chain variable region sequence) VH: QIQLVQSGSELKKPGASVKVSCKASGYTFTDYSMHWVRQAPGQGLKWMGWINTETGEPTYAQGFTGRFVFSLDTSVSTAYLQISSLKAEDTAVYYCARIPLYYYGSRYWYFDVWGQGTTVTVSS VL: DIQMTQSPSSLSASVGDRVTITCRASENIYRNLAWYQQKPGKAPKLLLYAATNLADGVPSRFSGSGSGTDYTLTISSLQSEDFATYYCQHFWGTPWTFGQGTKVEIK	%	7.4

# context switch: different molecule, same hEphB4-SEAP-: absorbance at 450 nm, percentage with respect to hEphA4-SEAP-His as 100%
152 (antibody, V domains shown, synthetic humanized antibody heavy chain variable region sequence; synthetic humanized antibody light chain variable region sequence) VH: QVQLVQSGSELKKPGASVKVSCKASGYTFTDYSMHWVRQAPGQGLEWMGWINTETGEPTYAQGFTGRFVFSLDTSVSTAYLQISSLKAEDTAVYYCARIPLYYYGSRYWYFDVWGQGTTVTVSS VL: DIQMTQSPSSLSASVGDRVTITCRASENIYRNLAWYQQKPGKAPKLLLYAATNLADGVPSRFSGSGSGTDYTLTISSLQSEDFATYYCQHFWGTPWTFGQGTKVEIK yielded hEphB4-SEAP-: absorbance at 450 nm, percentage with respect to hEphA4-SEAP-His as 100% of 5.9
